# assay summary: Metabolic stability in human liver microsomes
# Format: in vitro ADME
# details: pH 7.4; human liver microsomes 0.5 mg/mL, 1 μM compound
readout label: half-life at 1 μM (h)

- line notation: "[2H]C([2H])([2H])N1CCN(C2CCN(c3ccc(Nc4nc(NC5CCOCC5)c(C([2H])([2H])C([2H])([2H])[2H])nc4C(N)=O)cc3OC)CC2)CC1"
  half-life at 1 μM, h: 3.14

[1] [2H]C([2H])([2H])N1C([2H])([2H])C([2H])([2H])N(C2CCN(c3ccc(Nc4nc(NC5CCOCC5)c(CC)nc4C(N)=O)cc3OC)CC2)C([2H])([2H])C1([2H])[2H]
[2] [2H]C([2H])([2H])N1CCN(C2CCN(c3ccc(Nc4nc(NC5CCOCC5)c(CC)nc4C(N)=O)cc3OC)CC2)CC1
Quick one: lower half-life at 1 μM, 1 or 2 ? # answer = label of selected item 2
